Just for reference, the supplement of paper PMC3334620 is where these values come from.

Target: Mot3 (UniProt P54785)
Sequence: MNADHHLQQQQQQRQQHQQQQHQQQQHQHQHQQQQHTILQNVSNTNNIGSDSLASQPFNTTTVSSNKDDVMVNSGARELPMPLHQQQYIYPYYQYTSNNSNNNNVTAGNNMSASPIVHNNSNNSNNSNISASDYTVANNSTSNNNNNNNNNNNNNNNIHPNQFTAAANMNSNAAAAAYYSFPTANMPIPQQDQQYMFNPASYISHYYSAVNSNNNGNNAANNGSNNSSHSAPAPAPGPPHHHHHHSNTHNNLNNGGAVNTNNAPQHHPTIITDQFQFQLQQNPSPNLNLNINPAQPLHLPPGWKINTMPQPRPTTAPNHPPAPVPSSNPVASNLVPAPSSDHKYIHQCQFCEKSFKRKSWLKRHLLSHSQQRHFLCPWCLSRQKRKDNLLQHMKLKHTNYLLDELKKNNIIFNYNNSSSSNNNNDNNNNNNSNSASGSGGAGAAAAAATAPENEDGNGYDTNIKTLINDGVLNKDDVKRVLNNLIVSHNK
Assay: PBM E-score (8-mer binding enrichment) (E-score (-0.5 to 0.5)); higher = stronger / more preferred TF binding
Settings: protein concentration: 200 nM; construct: GST-full length
In all, about 33,000 sequences were measured (“E-score (-0.5 to 0.5)”: median about -0.035, highest 2% from about 0.34 on). The sample holds the highest values, similar sequences and a random draw of the others, so the mix is not that of the screen.
# PBM E-score >= -0.06 gives criterion met, anything below gives criterion not met

Inquiry: Given the entry AAAGTAGC , answer whether its PBM E-score meets or surpasses -0.06.
Reply text: criterion met

Inquiry: Same read-out for AGAGCACC ?
Reply text: criterion not met

Inquiry: Can you handle CCCAACGA next?
Reply text: criterion not met

Inquiry: // query: CAAACGCC
Reply text: criterion not met

Inquiry: Input AAGCCCAT
Reply text: criterion not met

Inquiry: // repeat for GTGACACA and report
Reply text: criterion met

Inquiry: Next sequence up: ATGACACA
Reply text: criterion met

Inquiry: Also check ACACCCCG
Reply text: criterion not met

Inquiry: Next record, please: CTCACACA
Reply text: criterion not met

Inquiry: And CTTACACA ?
Reply text: criterion met

Inquiry: Follow-up item: AAGCGCAG
Reply text: criterion not met

Inquiry: Can you handle CGCACATA next?
Reply text: criterion not met

Inquiry: What would you report for ACGCCGGC ?
Reply text: criterion not met

Inquiry: Then what about the sequence ATGACACG ?
Reply text: criterion met

Inquiry: One more sequence: ACCATTTC
Reply text: criterion not met

Inquiry: Now give it for AAGGTCTG too.
Reply text: criterion not met

Inquiry: Input CGCCCAAG
Reply text: criterion not met

Inquiry: What do you get for GGAGAAAA ?
Reply text: criterion not met

Inquiry: Next sequence up: ATTCACTA
Reply text: criterion met

Inquiry: What do you get for ATTACACC ?
Reply text: criterion met

Inquiry: Can you handle GGTGCGAC next?
Reply text: criterion not met

Inquiry: Could you do the same for ACACTGAC , please?
Reply text: criterion met

Inquiry: Also CGCCTTGA ?
Reply text: criterion met

Inquiry: Cool, now AAAGATGG
Reply text: criterion met

Inquiry: And for GCACAACA ?
Reply text: criterion met

Inquiry: For GGGCGTAA then?
Reply text: criterion met

Inquiry: Now give it for ATTACACA too.
Reply text: criterion met

Inquiry: Now the sequence GCTTATCC
Reply text: criterion not met

Inquiry: For GTGCGTAA then?
Reply text: criterion met

Inquiry: Similarly, GGCTAATA ?
Reply text: criterion not met

Inquiry: What do you have for CAACTACC ?
Reply text: criterion met

Inquiry: Try CTGCGTAA next.
Reply text: criterion met

Inquiry: Follow-up item: CGAATGAC
Reply text: criterion met

Inquiry: Moving on to AAACTGCA
Reply text: criterion met

Inquiry: // next record GTTACACA
Reply text: criterion met

Inquiry: Also need GTTACAAA , thanks.
Reply text: criterion met

Inquiry: Moving on to the next sequence: AACGTTAT
Reply text: criterion met

Inquiry: Also need AGGCGAAC , thanks.
Reply text: criterion not met

Inquiry: // query: GCATTCTA
Reply text: criterion met

Inquiry: Further, for GGATGAAC ?
Reply text: criterion not met

Inquiry: Follow-up entry: AATAGCCA
Reply text: criterion not met

Inquiry: Next up: ATTACACG
Reply text: criterion met

Inquiry: Same again, this time with ATCACACA
Reply text: criterion met

Inquiry: One more sequence: TAGTAATA
Reply text: criterion met

Inquiry: And the next one, GCACAAGC ?
Reply text: criterion met
